- Tested On: Human M4 (Homo sapiens, UniProt P08173)
- Construct: Human or rat M4 cDNA, along with the chimeric G protein Gqi5, were transfected into Chinese hamster ovary (CHO-K1) cells; expressed in transfected cells; host or cells: CHO-K1 (Chinese hamster ovary, ATCC), stably co-expressing Gqi5
- Sequence (P08173 whole entry): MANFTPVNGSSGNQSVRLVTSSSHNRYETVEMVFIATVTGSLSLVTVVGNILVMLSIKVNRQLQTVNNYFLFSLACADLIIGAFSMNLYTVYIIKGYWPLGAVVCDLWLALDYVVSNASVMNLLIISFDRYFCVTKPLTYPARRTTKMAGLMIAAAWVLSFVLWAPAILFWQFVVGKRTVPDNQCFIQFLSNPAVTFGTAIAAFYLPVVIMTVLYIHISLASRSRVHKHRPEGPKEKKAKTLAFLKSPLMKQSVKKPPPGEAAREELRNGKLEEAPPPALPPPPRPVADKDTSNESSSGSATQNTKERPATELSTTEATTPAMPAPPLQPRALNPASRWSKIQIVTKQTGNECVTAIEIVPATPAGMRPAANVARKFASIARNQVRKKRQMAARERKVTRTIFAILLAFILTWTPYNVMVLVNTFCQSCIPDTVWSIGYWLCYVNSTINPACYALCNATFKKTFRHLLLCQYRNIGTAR
- Assay Info: mAChR M4 cell-based functional assay (calcium flux, decrease of EC80 acetylcholine response)
- Measurement Conditions: % ACh maximum at 30 μM; read-out: Human M4 Emin
Measured remaining activity at 30 µM accompanies every entry in the list below.
API: value field is a number in %; no unit string.

# Molecule, remaining activity at 30 µM [%]
measured = [
    ("Cn1cc2cc(-c3cnc(N[C@H]4C[C@@H]5CN(Cc6ccc7c(c6)OCO7)C[C@@H]5C4)nc3)ccc2n1", 10),
]

QUERY: Param item = Cn1cc2cc(-c3cc(C#N)c(N[C@H]4C[C@@H]5CN(CC6CCOCC6)C[C@@H]5C4)nn3)ccc2n1 ; retrieve measured remaining activity at 30 µM.
RESULT: 11

QUERY: Subsequent entry: Cn1cc2cc(-c3cc(C(F)(F)F)c(N[C@H]4C[C@@H]5CN(C[C@H]6CC7CCC6O7)C[C@@H]5C4)nn3)ccc2n1 (stereo partly drawn)
RESULT: 3

QUERY: Subsequent entry: COc1cc(C)c(-c2cc(C(F)(F)F)c(N[C@H]3C[C@@H]4CN(CC5CCOCC5)C[C@@H]4C3)nn2)cc1C
RESULT: 3

QUERY: Subsequent entry: Cc1ccc(F)cc1-c1cc(C#N)c(N[C@H]2C[C@@H]3CN(C[C@H]4COCCO4)C[C@@H]3C2)nn1
RESULT: 2

QUERY: Subsequent entry: [2H]C([2H])(C1CCOCC1)N1C[C@H]2C[C@H](Nc3nnc(-c4ccccc4)cc3C(F)(F)F)C[C@H]2C1
RESULT: 3
